target: human TRPV1 (Homo sapiens, UniProt Q8NER1); construct: expressed in transfected cells; test: Capsaicin Activation Assay (FLIPR intracellular Ca2+, recombinant HEK293 cells); format: cell-based; settings: recombinant HEK293 cells expressing hTRPV1; 50 nM capsaicin; read-out: human TRPV1 capsaicin IC50
Sequence (Q8NER1 whole entry): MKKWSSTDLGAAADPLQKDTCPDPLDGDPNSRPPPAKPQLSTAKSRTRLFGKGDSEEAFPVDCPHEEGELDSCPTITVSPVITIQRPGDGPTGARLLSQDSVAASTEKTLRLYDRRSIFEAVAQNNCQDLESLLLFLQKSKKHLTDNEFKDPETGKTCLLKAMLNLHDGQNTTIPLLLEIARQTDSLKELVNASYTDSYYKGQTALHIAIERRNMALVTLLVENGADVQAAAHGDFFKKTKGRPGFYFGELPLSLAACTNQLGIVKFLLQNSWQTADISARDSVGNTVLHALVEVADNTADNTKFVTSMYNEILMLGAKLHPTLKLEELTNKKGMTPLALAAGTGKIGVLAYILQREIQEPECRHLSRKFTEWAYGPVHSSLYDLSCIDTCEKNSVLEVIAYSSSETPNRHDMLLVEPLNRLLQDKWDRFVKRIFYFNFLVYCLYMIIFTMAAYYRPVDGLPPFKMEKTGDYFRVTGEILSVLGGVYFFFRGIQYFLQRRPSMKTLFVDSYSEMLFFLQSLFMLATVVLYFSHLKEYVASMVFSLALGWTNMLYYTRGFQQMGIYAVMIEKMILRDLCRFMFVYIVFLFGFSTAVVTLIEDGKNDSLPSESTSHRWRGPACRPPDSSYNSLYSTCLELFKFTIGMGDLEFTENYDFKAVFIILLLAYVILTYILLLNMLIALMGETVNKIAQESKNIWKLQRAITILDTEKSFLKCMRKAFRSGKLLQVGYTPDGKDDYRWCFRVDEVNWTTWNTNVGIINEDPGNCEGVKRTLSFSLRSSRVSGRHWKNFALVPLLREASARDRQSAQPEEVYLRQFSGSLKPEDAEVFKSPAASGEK
pIC50: −log10 of the molar value.
Short version: pIC50 at least 7 is Criterion met, less is Criterion not met.

molecule	className
COc1ccc(C2CC(NC(=O)Nc3cccc4c3CC(O)C4)c3ccccc3O2)cc1OC (centres unmarked)	Criterion not met
CCCC1(CCC)C[C@@H](NC(=O)Nc2cccc3c2C[C@H](O)C3)c2cc(F)ccc2O1	Criterion met
CC1(C)C[C@@H](NC(=O)Nc2ccc(F)c3c2C[C@H](O)C3)c2ccc(F)cc2O1	Criterion not met
O=C(Nc1cccc2c1C[C@@H](O)C2)N[C@@H]1CC(CF)(CF)Oc2c(F)cc(F)cc21	Criterion not met
O=C(Nc1ccc(F)c2c1C[C@@H](O)C2)N[C@@H]1CC(CF)(CF)Oc2c(F)cccc21	Criterion not met
O=C(Nc1cccc2c1C[C@H](O)C2)N[C@@H]1CC2(CCC2)Oc2cc(C(F)(F)F)ccc21	Criterion met
CC1(C)C[C@@H](NC(=O)Nc2cccc3c2C[C@@H](O)C3)c2ccc(F)c(Cl)c2O1	Criterion met
CC1(C)C[C@@H](NC(=O)Nc2ccc(F)c3c2C[C@@H](O)C3)c2ccc(Cl)cc2O1	Criterion not met
